Target: Recombinant human HSD17B13 enzyme (Homo sapiens, UniProt Q7Z5P4)
Sequence (Q7Z5P4 20-300): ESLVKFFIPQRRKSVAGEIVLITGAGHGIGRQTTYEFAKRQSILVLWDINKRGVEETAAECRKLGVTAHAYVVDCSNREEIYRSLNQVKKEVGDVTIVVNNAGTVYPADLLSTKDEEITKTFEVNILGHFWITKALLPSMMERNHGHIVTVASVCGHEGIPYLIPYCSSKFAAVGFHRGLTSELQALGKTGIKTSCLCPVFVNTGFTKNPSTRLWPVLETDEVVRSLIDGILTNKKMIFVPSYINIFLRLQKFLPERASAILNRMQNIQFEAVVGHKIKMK
Assay: HSD17b13 NAD(P)H-Glo biochemical assay
Conditions: 50 uM estradiol, 1 mM NAD+, NAD(P)H-Glo luminescence; read-out: HSD17β13 IC50
pIC50: −log10 of the molar value.
measurement label: pIC50

Sample records with pIC50:
[
  {
    "molecule": "Cn1nc(-c2cc(C(F)(F)F)c(F)c(O)c2F)c2cnc(N3CC(C)(C#N)C3)nc21",
    "pIC50": "6.00 to 7.00"
  },
  {
    "molecule": "Cn1nc(-c2cc(C(F)(F)F)c(F)c(O)c2F)c2cnc(N3CCOC(c4ncc[nH]4)C3)nc21 (centres unmarked)",
    "pIC50": "6.00 to 7.00"
  },
  {
    "molecule": "Cn1nc(-c2cc(C(F)(F)F)c(F)c(O)c2F)c2cnc(N3CCOC4(CCOCC4)C3)cc21",
    "pIC50": "> 7.00"
  },
  {
    "molecule": "Oc1cc(-c2n[nH]c3nc(N4CC5(CCOCC5)C4)ncc23)cc(C(F)(F)F)c1F",
    "pIC50": "6.00 to 7.00"
  },
  {
    "molecule": "Cn1nc(-c2cc(C(F)(F)F)c(F)c(O)c2F)c2cnc(N3CCOC(C4CCOCC4)C3)cc21 (centres unmarked)",
    "pIC50": "> 7.00"
  }
]

Can you look up the measured pIC50 of C[C@@H]1CN(C(=O)Nc2ccccc2)CCN1c1cc2c(cn1)c(-c1cc(C(F)(F)F)c(F)c(O)c1F)nn2C for me?
> 7.00

# lookup: pIC50 of O=C(NC1CCC1)c1ccc2oc(-c3cc(O)c(F)c(F)c3)nc2c1
> 7.00

So what does the record say about pIC50 for O=C(NC1CCOCC1)c1ccc2oc(-c3cc(O)c(F)c(F)c3)nc2c1 ?
6.00 to 7.00
